test name: qHTS assay to identify small molecule agonists of the AP-1 signaling pathway - cell viability counter screen (AID 1159525); also: nearly all actives have a fitted effect of over 55% in size
cond: ME-180 (cervical carcinoma) AP-1-bla cells viability, ATP luminescence, 5 h; series mostly up to 76.8 µM
Inconclusive results are not listed. Active and inactive are the calls of the source. Calls follow the shape of the full dose curve.
property label: outcome

# smiles notation, result
rows = [
    ("O=C(O)c1ccc(OCCCOc2ccc(C(=O)O)cc2)cc1", "inactive"),
    ("CC(C)=CC(=O)C=C(C)C", "inactive"),
    ("C=C1C[C@@]23CC[C@H]4[C@@](C)(CCC[C@@]4(C)C(=O)O[C@@H]4O[C@H](CO)[C@@H](O)[C@H](O)[C@H]4O)[C@@H]2CC[C@]1(O[C@@H]1O[C@H](CO)[C@@H](O)[C@H](O[C@@H]2O[C@H](CO)[C@@H](O)[C@H](O)[C@H]2O)[C@H]1O[C@@H]1O[C@H](CO)[C@@H](O)[C@H](O)[C@H]1O)C3", "inactive"),
]

Hello, the source for this data is PubChem BioAssay (Tox21), in case you need it.
